Reference source for all entries: patent US10517889B2

Test system: human SMAD7 mRNA
Experiment: Antisense inhibition of human SMAD7 mRNA expression in Hep3B cells by 5-10-5 MOE gapmers, single concentration, electroporation, RT-PCR (Example 1, Study 1 and 2)
Assay type: cell-based
Conditions: electroporation, 15,000 nM antisense oligonucleotide (Study 2), 5-10-5 MOE gapmers targeting SEQ ID NO: 1 and 2
Strand notation (5' to 3'): a small letter for the sugar, then the base; units joined by * are phosphorothioate-linked, units joined directly phosphodiester-linked; [ ] holds rarer units or linkages, { } end groups; capitals alone tell only the bases. e = 2'-O-(2-methoxyethyl) (MOE); [5mC] = 5-methylcytosine; d = 2'-deoxy (DNA)
value-type: % inhibition of SMAD7 mRNA expression (%)
The figure you give is taken to be in %; do not add the unit.

Prompt: Consider the substance 771848 (antisense e[5mC]*e[5mC]*eA*e[5mC]*eA*d[5mC]*dA*dA*d[5mC]*d[5mC]*dA*dA*dA*dG*d[5mC]*eA*eG*eA*eA*eG) [compound 771848] . State its measured % inhibition of SMAD7 mRNA expression.
Response: 36

Prompt: Please list % inhibition of SMAD7 mRNA expression recorded for the substance 771433 (eT*e[5mC]*e[5mC]*eT*eT*d[5mC]*dA*dG*dT*dT*dT*d[5mC]*dT*dT*dG*eA*eG*e[5mC]*eA*e[5mC]; antisense) [compound 771433]
Response: 0

Prompt: For the substance 771752 (antisense eA*eA*eT*eG*eT*d[5mC]*d[5mC]*d[5mC]*dT*dG*dT*dG*dG*dG*dT*eT*eT*e[5mC]*e[5mC]*eA) [compound 771752] , report % inhibition of SMAD7 mRNA expression.
Response: 0

---

System: human SMAD7 mRNA
Assay: Antisense inhibition of human SMAD7 mRNA expression in Hep3B cells by 3-10-3 cEt gapmers, 10,000 nM, electroporation (Example 2)
Format: cell-based
Details: Hep3B cells, 10,000 nM antisense oligonucleotide, electroporation, approximately 24 hours, RT-PCR primer probe set RTS5062, relative to untreated control cells
Strand notation (5' to 3'): a small letter for the sugar, then the base; units joined by * are phosphorothioate-linked, units joined directly phosphodiester-linked; [ ] holds rarer units or linkages, { } end groups; capitals alone tell only the bases. k = constrained ethyl (cEt); [5mC] = 5-methylcytosine; d = 2'-deoxy (DNA)
value-type: % Inhibition
The answer should read as a number with its unit following.

> print(dat)
                                  substance  result
1  800036 (kG*kT*kT*dA*dG*dG*dA*d[5mC]*dA*dG*d[5mC]*dT*d[5mC]*k[5mC]*kA*kG; antisense) [compound 800036]     38%

Prompt: Answer with reported % Inhibition of 799935 (antisense kA*kG*kA*dA*dA*dT*dG*dA*d[5mC]*dT*dT*dT*dT*kT*kA*k[5mC]) [compound 799935]
Response: 42%

Prompt: Return % Inhibition for the following substance: 800056 (antisense kT*kG*k[5mC]*dT*dA*dA*dT*dA*dA*dA*d[5mC]*dT*dT*kG*kT*kG) [compound 800056]
Response: 7%

Prompt: Return value of % Inhibition for input 798909 (kA*k[5mC]*kG*d[5mC]*dG*dG*d[5mC]*dT*dA*d[5mC]*d[5mC]*dG*dG*k[5mC]*kT*kG; antisense) [compound 798909] , no commentary.
Response: 42%

Prompt: Please report % Inhibition for the following substance: 799839 (antisense kA*kG*k[5mC]*dA*d[5mC]*dA*dA*dT*dA*dT*dG*dA*dA*kT*kG*kT) [compound 799839]
Response: 36%

Prompt: Tell me its % Inhibition given 799979 (kA*kA*k[5mC]*dG*dG*dT*dT*dG*d[5mC]*d[5mC]*dT*d[5mC]*dA*kT*k[5mC]*k[5mC]; antisense) [compound 799979] as the entry.
Response: 38%

---

Test system: human SMAD7 mRNA
Assay: Antisense inhibition of human SMAD7 mRNA expression in Hep3B cells by 5-10-5 MOE gapmers, single concentration, electroporation, RT-PCR (Example 1, Study 1 and 2)
Type: cell-based
Settings: electroporation, 15,000 nM antisense oligonucleotide (Study 2), 5-10-5 MOE gapmers targeting SEQ ID NO: 1 and 2
Strand notation (5' to 3'): a small letter for the sugar, then the base; units joined by * are phosphorothioate-linked, units joined directly phosphodiester-linked; [ ] holds rarer units or linkages, { } end groups; capitals alone tell only the bases. e = 2'-O-(2-methoxyethyl) (MOE); [5mC] = 5-methylcytosine; d = 2'-deoxy (DNA)
value-type: % inhibition of SMAD7 mRNA expression (%)
# unit: % | format: bare number

Consider the reported % inhibition of SMAD7 mRNA expression for these substances:
substance	value-type	number
771578 (antisense e[5mC]*eT*eG*e[5mC]*e[5mC]*dT*d[5mC]*dT*dG*d[5mC]*d[5mC]*d[5mC]*d[5mC]*dA*d[5mC]*eT*eG*eA*eG*e[5mC]) [compound 771578]	% inhibition of SMAD7 mRNA expression	50
483663 (antisense e[5mC]*eA*eG*e[5mC]*e[5mC]*dT*d[5mC]*dT*dT*dG*dA*d[5mC]*dT*dT*d[5mC]*e[5mC]*eG*eA*eG*eG) [compound 483663]	% inhibition of SMAD7 mRNA expression	41
771768 (antisense eG*eT*eA*eT*eG*d[5mC]*dT*dT*dG*dG*dG*dA*dT*d[5mC]*dT*eG*eT*e[5mC]*eT*eT) [compound 771768]	% inhibition of SMAD7 mRNA expression	11
771449 (eT*e[5mC]*eG*e[5mC]*eA*dG*dA*dG*dT*d[5mC]*dG*dG*d[5mC]*dT*dA*eA*eG*eG*eT*eG; antisense) [compound 771449]	% inhibition of SMAD7 mRNA expression	0

Turning now to a further record.
Prompt: # lookup: human SMAD7 mRNA % inhibition of SMAD7 mRNA expression, key = 771388 (antisense eG*e[5mC]*eG*e[5mC]*e[5mC]*d[5mC]*dT*dG*d[5mC]*dG*d[5mC]*dG*dG*d[5mC]*dT*e[5mC]*eT*e[5mC]*e[5mC]*eG) [compound 771388]
Response: 31

---

Tested on: murine Smad7 mRNA
Assay: Dose-dependent inhibition of murine Smad7 mRNA in bEND cells, electroporation (Example 5, Study 2)
Type: cell-based, mouse
Settings: 2.22 μM, electroporation, approximately 16 hours
Measured % inhibition of SMAD7 mRNA expression by item
Your answer is read as %, so omit the unit and give the number.

> print(dat)
                                  substance  number
1  790615 (CCAATGAGAATGCTTC; 3-10-3 cEt gapmer, further chemistry not given here) [compound 790615]      37

Prompt: // fetch % inhibition of SMAD7 mRNA expression for 830037 (antisense CTATTGGCTGATCTGG; 3-10-3 cEt gapmer, further chemistry not given here) [compound 830037] ; system: murine Smad7 mRNA
Response: 1

Prompt: # return % inhibition of SMAD7 mRNA expression for 830025 (antisense TTTGTAAATCGAAAGC; 3-10-3 cEt gapmer, further chemistry not given here) [compound 830025] , test system: murine Smad7 mRNA
Response: 51

Prompt: // fetch % inhibition of SMAD7 mRNA expression; item: 798781 (CGTAAGATTCACAGCA; 3-10-3 cEt gapmer, further chemistry not given here) [compound 798781] ; system: murine Smad7 mRNA
Response: 20

Prompt: Jot down % inhibition of SMAD7 mRNA expression (murine Smad7 mRNA) of 830121 (AGAATCAAGCCCTGGC; 3-10-3 cEt gapmer, further chemistry not given here) [compound 830121] .
Response: 12

Prompt: Param request: % inhibition of SMAD7 mRNA expression | system murine Smad7 mRNA | item 736697 (antisense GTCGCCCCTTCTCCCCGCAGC; chemistry not fully specified) [compound 736697]
Response: 0

---

Listing of entries alongside the reported % inhibition of SMAD7 mRNA expression.
Tested on: human SMAD7 mRNA
Experiment: Antisense inhibition of human SMAD7 mRNA expression in Hep3B cells by 3-10-3 cEt gapmers, 10,000 nM, electroporation (Example 2)
Format: cell-based
Details: Hep3B cells, electroporation, 10,000 nM antisense oligonucleotide, approximately 24 hours, RTS5062, relative to untreated control cells
Strand notation (5' to 3'): a small letter for the sugar, then the base; units joined by * are phosphorothioate-linked, units joined directly phosphodiester-linked; [ ] holds rarer units or linkages, { } end groups; capitals alone tell only the bases. k = constrained ethyl (cEt); [5mC] = 5-methylcytosine; d = 2'-deoxy (DNA)
Reply numerically in %, unit not repeated.

> print(dat)
                                  substance  number
1  799300 (antisense k[5mC]*kA*k[5mC]*dA*dT*dT*d[5mC]*d[5mC]*dA*dA*dA*dA*dG*kG*k[5mC]*kT) [compound 799300]      28
2  799558 (k[5mC]*kT*kT*d[5mC]*dT*dA*dT*dT*d[5mC]*dG*dA*dG*d[5mC]*kT*kG*k[5mC]; antisense) [compound 799558]      47
3  799306 (antisense kA*kA*kA*d[5mC]*dA*dG*d[5mC]*dA*dT*dG*dA*dA*dA*kG*kA*k[5mC]) [compound 799306]      27

Prompt: Give reported % inhibition of SMAD7 mRNA expression value for 799655 (antisense kT*kG*k[5mC]*dA*dG*d[5mC]*dT*dG*dA*dA*dT*dA*dA*k[5mC]*k[5mC]*kT) [compound 799655]
Response: 47

Prompt: Give the reported value of % inhibition of SMAD7 mRNA expression for this record: 799576 (kG*kA*kA*dA*dG*dG*dA*d[5mC]*d[5mC]*d[5mC]*dT*dT*dT*k[5mC]*kA*kA; antisense) [compound 799576]
Response: 25

Prompt: Look up % inhibition of SMAD7 mRNA expression of 799320 (antisense kG*kT*k[5mC]*dT*dG*d[5mC]*dT*dG*dT*dG*dG*dA*dT*kT*kT*kG) [compound 799320] and report it.
Response: 0

Prompt: Supply measured % inhibition of SMAD7 mRNA expression of 799635 (kA*k[5mC]*kA*dG*dA*d[5mC]*dT*dG*d[5mC]*d[5mC]*dA*dA*dA*kT*k[5mC]*kA; antisense) [compound 799635] in your reply.
Response: 28
